The reported measurements were obtained from patent US20150361176A1.

Entries and their koff
Molecular target: T1, recombinant human TGF-β RII/Fc chimera protein (human, UniProt P37173 24-159)
T1 construct: range 24-159; Made in HEK-F cells; Biotinylated where it was put on SA chips, otherwise captured by anti-human IgG; also called human TGFbRII/Fc; hRII-Fc; not shown: Fc region of human IgG1
T1 sequence (P37173 24-159 limits assumed, change not shown): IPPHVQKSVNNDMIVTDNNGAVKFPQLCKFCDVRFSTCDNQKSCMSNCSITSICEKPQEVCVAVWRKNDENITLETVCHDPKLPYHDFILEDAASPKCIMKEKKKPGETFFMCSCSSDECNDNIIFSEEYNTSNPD
Test: SPR Biacore T200, receptor-Fc captured by anti-human IgG, dAb as analyte, 1:1 model
The response must be a number in s⁻¹ with no trailing unit.

Worked cases, koff given:
binder	unit.abbreviation	koff
DOM23h-271-123 (VHH, expressed from pC10) VHH: EVQLLESGGGLVQPGGSLRLSCAASGSTFTEYRMWWVRQAPGKGLEWVSAIEPIGHRTYYADSVKGRFTISRDNSKNTLYLQMNSLRAEDTAVYYCAKQAPGEKWARRWDLDYWGQGTLVTVSS	s⁻¹	0.000293
DOM23h-439-43 (DOM23h-439-25 + C-terminal Alanine + 64R) (VHH, human VH dAb) VHH: EVQLLESGGGLVQPGGSLRLSCAASGFTFGTEQMWWVRQAPGKGLEFVSRIDSPGGRTYYADSVRGRFTISRDNSKNTLYLQMNSLRAEDTAVYYCAKRRPTGVSGTFYDYWGQGTLVTVSS	s⁻¹	0.000373
DOM23h-271-133 (DOM23h-271-123 + C-terminal Alanine + 61N64R) (VHH, human VH dAb) VHH: EVQLLESGGGLVQPGGSLRLSCAASGSTFTEYRMWWVRQAPGKGLEWVSAIEPIGHRTYYANSVRGRFTISRDNSKNTLYLQMNSLRAEDTAVYYCAKQAPGEKWARRWDLDYWGQGTLVTVSS	s⁻¹	7.7e-05

# context switch: different binder, same koff
# input So what does the record say about koff for DOM23h-439-35 (VHH, expressed from pC10) VHH: EVQLLESGGGLVQPGGSLRLSCAASGFTFGTDQMWWVRQAPGKGLEFVSRIDSPGGRTYYANSVKGRFTISRDNSKNTLYLQMNSLRAEDTAVYYCAKRQPAGVSGKYVDYWGQGTLVTVSS ?
# output 0.000222
